# Tested on: PC-3 prostate
# Assay comment: NCI tumour cell line growth inhibition, 48 h
Provide the recorded log10(TGI) for the entries that follow.
Use the decimal logarithm of TGI (µM).

Examples from the recorded data:
COC(=O)[C@@H](C)C[C@H](Cc1ccccc1)NC(=O)c1csc([C@@H](C[C@H](C(C)C)N(C)C(=O)[C@@H](NC(=O)[C@H]2CCCCN2C)C2CCCCC2)OC(C)=O)n1; 1.32
COc1cc(O)c(C(=O)/C=C/c2ccc(O)cc2)cc1Oc1ccc(/C=C/C(=O)c2ccc(O)cc2O)cc1; 1.34
Cc1cc(C)c(C(=O)c2nnc3ccccc3c2N)c(C)c1; 1.76
CCCCCOc1ccc(/C=N/Nc2cc(C)nc3ccc(Br)cc23)cc1; 0.48
N#Cc1c(N/N=C/c2ccc(Cl)cc2Cl)nc(N)nc1N1CCCC1; 1.58
CCOC(=O)/C=C(/C)Sc1cc(O)c2ccccc2c1O; 1.36
O=C(/C=C/c1ccc(OCc2cccc(Cl)c2)cc1)NO; 1.68
CC1CC[C@@]2(OC1)OC1C[C@H]3[C@@H]4CC[C@H]5CC(OC6OC(CO)C(O)C(OC7OC(CO)C(OC8OC(CO)C(O)C(OC9OC(CO)C(O)C(O)C9O)C8OC8OC(CO)C(O)C(O)C8O)C(O)C7O)C6O)[C@H](O)CC5(C)[C@H]4CCC3(C)C1[C@@H]2C (some centres undefined); 0.82

Kindly consider the entry below.
Recorded log10(TGI) of "CC(C)N(C(=O)C1(O)c2ccccc2C=Cc2ccccc21)C(C)C" , please.
1.46

====

# Test system: HOP-92 NSCLC
# Assay comment: NCI tumour cell line growth inhibition, 48 h
For each entry below, report its TGI value.

Completed entries (count: 4):
Cc1c(/C=N/NC(=O)c2ccc(Cl)cc2)c(=O)n(-c2ccccc2)n1C; > 100 µM
O=C1OCC2C1C1c3ccccc3C(O)c3ccccc3C21 (centres undefined); > 100 µM
COc1ccc(CC2c3cc(OC)c(OC)cc3CC[N+]2(C)C)cc1OC (centres undefined); > 100 µM
COc1ccc(CCNC(=O)c2ccc(NC3=C(Cl)C(=O)N(Cc4ccccc4)C3=O)cc2)cc1OC; 5.75 µM

Field: TGI. Fill in for each record below.
1. CC1CC[C@@]2(OC1)OC1C[C@H]3[C@@H]4CC[C@H]5CC(OC6OC(CO)C(O)C(OC7OC(CO)C(OC8OC(CO)C(O)C(OC9OC(CO)C(O)C(O)C9O)C8OC8OC(CO)C(O)C(O)C8O)C(O)C7O)C6O)[C@H](O)CC5(C)[C@H]4CCC3(C)C1[C@@H]2C (some centres undefined)
2. CCCCCCOc1ccc(Nc2c(O)c3c(c(O)c2Cl)C(=O)C=CC3=O)cc1
3. CC(C)CC(NC(=O)C(CI)Cc1ccccc1)C(=O)Nc1ccccc1 (centres undefined)
4. COc1ccc(-c2coc3c4c(ccc3c2=O)OCO4)cc1OC

1: 12.1 µM; 2: 7.14 µM; 3: > 100 µM; 4: > 100 µM

Would you mind telling me what TGI value was observed for "COc1ccc2c(c1)C(=O)OCCC2" ?
> 100 µM

====

# Tested on: HCC-2998 colon
# Assay comment: NCI tumour cell line growth inhibition, 48 h
Please go through the items and note down their GI50.

In the examples that follow, each entry is paired with its recorded GI50.
COc1ccc(O)c(C(=O)c2ccc(C(=O)N[C@H]3CCCNC[C@@H]3NC(=O)c3ccncc3)cc2)c1F; 9.74 µM
CCn1c(=O)c2c(=O)c3c4c(oc3oc2c2ccccc21)C(=O)c1ccccc1C4=O; > 100 µM
OCCCNc1nccc(-c2c(-c3ccc(F)cc3)nn3cc(C(F)(F)F)ccc23)n1; > 23.4 µM
NC(=O)OCCn1cc(-c2nc(-c3c[nH]c4ncccc34)cs2)c2ccccc21; 1.99 µM

// query GI50 value for entry "C1=C\COCc2cc(ccc2OCCN2CCCC2)Nc2nccc(n2)-c2cccc(c2)COC/1"
2.3 µM
